Molecular target: T1, His-tagged human TIGIT (human, UniProt Q495A1 22-141)
T1 construct: SPR analyte; also called human TIGIT protein; not shown: His tag
T1 sequence: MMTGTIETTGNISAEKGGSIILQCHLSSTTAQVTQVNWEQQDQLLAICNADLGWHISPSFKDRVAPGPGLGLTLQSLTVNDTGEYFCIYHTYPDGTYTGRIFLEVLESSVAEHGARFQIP
Assay: SPR (Biacore T200), antibody captured, His-tagged TIGIT analyte
Cut-off 0.0002 s⁻¹ on koff: below means YES, at or above means NO.

Here's what some known entries look like.
{"columns": ["binder", "answer-label"],
 "data": [
  ["TIGIT-19 chimeric antibody (antibody, human IgG1, kappa, V domains shown, also called 19VH + 19VL) VH: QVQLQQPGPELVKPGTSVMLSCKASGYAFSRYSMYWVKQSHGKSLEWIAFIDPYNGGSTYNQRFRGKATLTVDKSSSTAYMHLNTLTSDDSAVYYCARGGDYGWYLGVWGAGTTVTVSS VL: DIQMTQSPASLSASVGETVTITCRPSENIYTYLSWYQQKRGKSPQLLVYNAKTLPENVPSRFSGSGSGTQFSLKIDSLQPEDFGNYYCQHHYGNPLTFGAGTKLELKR", "YES"],
  ["Hu1217-2-2 (anti-TIGIT positive control antibody) (antibody, V domains shown) VH: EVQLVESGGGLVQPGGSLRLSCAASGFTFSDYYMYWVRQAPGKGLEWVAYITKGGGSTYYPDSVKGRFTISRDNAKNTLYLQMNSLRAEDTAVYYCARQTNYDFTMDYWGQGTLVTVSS VL: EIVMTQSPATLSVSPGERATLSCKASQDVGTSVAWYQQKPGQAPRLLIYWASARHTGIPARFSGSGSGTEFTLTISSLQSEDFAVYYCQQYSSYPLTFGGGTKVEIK", "YES"],
  ["TIGIT-3 chimeric antibody (antibody, human IgG1, kappa, V domains shown, also called 3VH + 3VL) VH: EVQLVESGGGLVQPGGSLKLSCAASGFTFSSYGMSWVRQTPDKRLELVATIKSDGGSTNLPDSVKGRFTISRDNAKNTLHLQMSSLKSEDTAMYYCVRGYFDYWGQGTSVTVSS VL: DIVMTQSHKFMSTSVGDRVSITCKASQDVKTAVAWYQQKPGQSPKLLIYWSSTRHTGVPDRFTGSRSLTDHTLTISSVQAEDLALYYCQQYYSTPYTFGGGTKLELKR", "YES"],
  ["TIGIT-15 chimeric antibody (antibody, human IgG1, kappa, V domains shown, Full-length chimeric IgG1 kappa) VH: DVQLVESGGGLVQPGGSLKLSCAASGFTFSSYGMSWVRQTPDRRLELVATINNNGGSTYYPDSVKGRFTISRDNARNTLYLQMSSLKSEDTAMYYCATRTGTEILGFDFWGQGTTLTVSS VL: DIVLTQSHKFMSTSLGDRVSITCKASQDVSTAVAWYQQKPGQSPKLLIYWASSRHTGVPDRFTGSRSGPDYTLTISSVQAEDLALYYCQQQYSTPWTFGGGTKLEIKR", "YES"],
  ["TIGIT-100 chimeric antibody (antibody, human IgG1, kappa, V domains shown, Full-length chimeric IgG1 kappa) VH: QVQLQQPGPELVKPGASVKISCKASGYSFTDYNMNWVKQSNGKSLEWIGVINPNSGTDNYNQKFKGKATLTVDQSSSTAYMQLNSLTSEDSAVYFCARGVYFGNYFDSWGQGTTLTVSS VL: DIVMTQSPASLSASVGETVTITCRASENIYSSLAWYQQKQGKSPQLLVFNAKTLTEGVPSRFSGSGSGTQFSLKINSLQPEDFGSYYCQHHYGAPWTFGGGTKLEIKR", "NO"]
]}

Query block: Please check: koff for TIGIT-87 chimeric antibody (antibody, human IgG1, kappa, V domains shown, Full-length chimeric IgG1 kappa) VH: EVKLVESGPELVKPGASMKISCKASGYSFTGYTMNWVKQSHGKNLEWIGLINPYNGGTSYNQKFKGKATLTVDKSSSTAYMELLSLTSEDSAVYYCARYANRFENWFAYWGQGTLVTVSS VL: DIQMTQSPASLSASVGETVTITCRASENIYSYLAWYQQKQGKSPQLLVYNAKTLAEGVPSRFSGSGSGTQFSLKINSLQPEDFGSYYCQHHYGTPWTFGGGTKLEIKR , strictly under 0.0002 s⁻¹ or not?
Result block: NO

Where do the numbers come from? From patent US20260139048A1.
